- target_or_test_system: CSF1R (human)
- experimental_details: KINOMEscan competition binding
- applied_conditions: compound 10.0 µM
Give measured kinase still bound, per cent of control for each item. Keep answers brief.
// unit must come after the numeric part

stdin: State its kinase still bound, per cent of control for this compound: `CN1C(=O)c2ccccc2N(C)c2nc(NS(=O)(=O)c3ccc(N)cc3)ncc21`
stdout: 89%

stdin: State its kinase still bound, per cent of control: `COc1cc(N2CCN(C)CC2)ccc1Nc1ncc2c(n1)N(C)c1ccccc1C(=O)N2C`
stdout: 16%

stdin: Provide one value: measured kinase still bound, per cent of control of `COc1cc(N2CCC(O)CC2)ccc1Nc1ncc2c(n1)N(C)c1ccccc1C(=O)N2C`
stdout: 3.2%

stdin: Supply measured kinase still bound, per cent of control of `CN1C(=O)c2ccccc2N(C)c2nc(Nc3ccc(N4CCC(O)CC4)cc3)ncc21` in your reply.
stdout: 5.8%

stdin: Let me know recorded kinase still bound, per cent of control for `O=C1NC(=O)/C(=C/c2c[nH]c(=O)c(-c3ccc(N4CCNCC4)nc3)c2)S1` , thanks.
stdout: 69%

stdin: Look up kinase still bound, per cent of control of `COc1cc(N2CCN(C)CC2)ccc1Nc1ncc2c(n1)N(C)c1ccccc1C(=O)N2` and report it.
stdout: 1%

----------
- target_or_test_system: RPS6KA6 KD1 (human) (UniProt Q9UK32)
- Sequence (Q9UK32 whole entry, looked up): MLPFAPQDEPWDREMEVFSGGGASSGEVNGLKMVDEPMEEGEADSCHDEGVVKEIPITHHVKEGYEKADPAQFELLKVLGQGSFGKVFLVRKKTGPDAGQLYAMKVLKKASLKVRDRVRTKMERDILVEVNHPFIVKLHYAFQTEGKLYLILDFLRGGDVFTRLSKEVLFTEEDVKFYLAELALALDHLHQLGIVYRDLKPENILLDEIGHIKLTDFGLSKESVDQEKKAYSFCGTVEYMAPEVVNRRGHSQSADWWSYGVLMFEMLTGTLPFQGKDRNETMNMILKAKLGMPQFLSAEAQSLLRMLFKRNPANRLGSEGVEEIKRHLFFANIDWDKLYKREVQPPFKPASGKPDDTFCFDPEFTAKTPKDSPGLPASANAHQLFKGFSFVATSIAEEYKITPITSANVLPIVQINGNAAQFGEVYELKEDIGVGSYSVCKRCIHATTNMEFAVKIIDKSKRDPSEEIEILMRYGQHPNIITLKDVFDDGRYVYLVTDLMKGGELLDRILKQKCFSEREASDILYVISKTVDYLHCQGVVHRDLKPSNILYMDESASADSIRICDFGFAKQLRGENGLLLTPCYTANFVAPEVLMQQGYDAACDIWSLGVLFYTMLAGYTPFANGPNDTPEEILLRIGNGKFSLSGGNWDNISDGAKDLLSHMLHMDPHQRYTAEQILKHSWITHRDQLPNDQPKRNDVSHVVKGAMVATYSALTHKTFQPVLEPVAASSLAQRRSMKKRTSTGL
- experimental_details: KINOMEscan competition binding
- applied_conditions: compound 10.0 µM
Kindly supply the reported kinase still bound, per cent of control values for the records listed here.
# value in %; strip the unit string

stdin: Please report the measured kinase still bound, per cent of control for `COc1cc(N2CCN(C)CC2)ccc1Nc1ncc2c(n1)N(C)c1sccc1C(=O)N2C`
stdout: 96

stdin: // fetch kinase still bound, per cent of control given entry `COc1cc(N2CCN(C)CC2)ccc1Nc1ncc2c(n1)N(C)c1ccccc1N(C)C2=O`
stdout: 100

stdin: Please list kinase still bound, per cent of control recorded for the molecule `COc1cc(N2CCC(O)CC2)ccc1Nc1ncc2c(n1)N1CCc3cccc(c31)C(=O)N2C`
stdout: 87

----------
- target_or_test_system: RIOK2 (human) (UniProt Q9BVS4)
- Sequence (Q9BVS4 whole entry, looked up): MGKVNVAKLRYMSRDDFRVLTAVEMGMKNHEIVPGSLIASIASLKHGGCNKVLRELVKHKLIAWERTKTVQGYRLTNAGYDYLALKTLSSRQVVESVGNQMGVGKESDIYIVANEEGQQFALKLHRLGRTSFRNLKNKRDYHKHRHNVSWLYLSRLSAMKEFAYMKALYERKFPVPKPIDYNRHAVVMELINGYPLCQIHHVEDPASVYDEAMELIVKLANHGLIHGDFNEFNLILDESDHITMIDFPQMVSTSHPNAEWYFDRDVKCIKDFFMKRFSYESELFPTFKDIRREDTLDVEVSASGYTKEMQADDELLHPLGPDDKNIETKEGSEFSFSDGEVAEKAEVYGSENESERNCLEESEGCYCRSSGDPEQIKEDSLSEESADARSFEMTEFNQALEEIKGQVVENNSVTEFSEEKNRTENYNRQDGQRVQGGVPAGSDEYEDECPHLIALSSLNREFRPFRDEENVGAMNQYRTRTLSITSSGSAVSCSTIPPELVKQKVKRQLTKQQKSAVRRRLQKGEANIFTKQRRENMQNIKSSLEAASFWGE
- experimental_details: KINOMEscan competition binding
- applied_conditions: compound 10.0 µM
quantity: kinase still bound, per cent of control (%)
Note: unit % is implicit; provide only the numeric part.

stdin: Report measured kinase still bound, per cent of control on RIOK2 (human) (UniProt Q9BVS4); entry: `N=C1NC(=O)/C(=C/c2ccc(-c3cnc4ccccc4c3)o2)S1`
stdout: 9.2

stdin: System RIOK2 (human) (UniProt Q9BVS4). Read-out kinase still bound, per cent of control. Item `CS(=O)(=O)Nc1ccc(-c2cc(/C=C3\SC(=N)NC3=O)c[nH]c2=O)cc1` . Report value.
stdout: 33

stdin: Write kinase still bound, per cent of control of COc1cc(C(=O)NC2CCC(O)CC2)ccc1Nc1ncc2c(n1)N(C1CCCC1)[C@@H]1CCC[C@@H]1C(=O)N2C (some centres undefined) ; system used: RIOK2 (human) (UniProt Q9BVS4)
stdout: 0.5

stdin: Please respond with reported kinase still bound, per cent of control (system RIOK2 (human) (UniProt Q9BVS4)) for `CS(=O)(=O)Nc1ccc(-c2cncc(/C=C3\SC(=N)NC3=O)c2)cc1` .
stdout: 23

----------
Give kinase still bound, per cent of control for every item shown.
- target_or_test_system: STK3 (human)
- experimental_details: KINOMEscan competition binding
- applied_conditions: compound 10.0 µM
Kindly answer with a numeric value in %, unit omitted.

stdin: Consider the molecule `N=C1NC(=O)/C(=C/c2ccc(-c3cncc4ccccc34)o2)S1` . State its measured kinase still bound, per cent of control.
stdout: 25

stdin: Report kinase still bound, per cent of control for `COc1cc(N2CCN(C)CC2)ccc1Nc1ncc2c(n1)N(C)c1sccc1C(=O)N2C`
stdout: 69

stdin: For the molecule `COc1cc(N2CCN(C)CC2)ccc1Nc1ncc2c(n1)Nc1ccccc1NC2=O` , give its reported kinase still bound, per cent of control.
stdout: 100

stdin: Consider the molecule `CN1C(=O)c2ccccc2N(C)c2nc(Nc3ccc(N4CCC(O)CC4)cc3)ncc21` . State its measured kinase still bound, per cent of control.
stdout: 27

stdin: Fill in reported kinase still bound, per cent of control for this entry: `CS(=O)(=O)Nc1ccc(-c2cncc(/C=C3\SC(=N)NC3=O)c2)cc1`
stdout: 17

stdin: // Input: `O=C1NC(=S)S/C1=C\c1ccc(-c2cccc3ccccc23)o1` . Output its kinase still bound, per cent of control only.
stdout: 34

----------
For each of the compounds below, state its kinase still bound, per cent of control.
- target_or_test_system: RPS6KA4 KD2 (human)
- experimental_details: KINOMEscan competition binding
- applied_conditions: compound 10.0 µM

stdin: Name the recorded kinase still bound, per cent of control of the compound listed here: `N=C1NC(=O)/C(=C/c2ccc(-c3cncc4ccccc34)o2)S1`
stdout: 27%

stdin: Supply reported kinase still bound, per cent of control belonging to this compound: `N=C1NC(=O)/C(=C/c2ccc(-c3ccc(F)cc3O)o2)S1`
stdout: 1.8%

stdin: Supply measured kinase still bound, per cent of control of `CN1C(=O)c2ccccc2N(C)c2nc(NS(=O)(=O)c3ccc(N)cc3)ncc21` in your reply.
stdout: 100%

stdin: Identify kinase still bound, per cent of control associated with the compound `Nc1cccc(-c2cc(/C=C3\SC(=O)NC3=O)c[nH]c2=O)c1`
stdout: 0.1%

----------
- target_or_test_system: DAPK1 (human) (UniProt P53355)
- Sequence (P53355 whole entry, looked up): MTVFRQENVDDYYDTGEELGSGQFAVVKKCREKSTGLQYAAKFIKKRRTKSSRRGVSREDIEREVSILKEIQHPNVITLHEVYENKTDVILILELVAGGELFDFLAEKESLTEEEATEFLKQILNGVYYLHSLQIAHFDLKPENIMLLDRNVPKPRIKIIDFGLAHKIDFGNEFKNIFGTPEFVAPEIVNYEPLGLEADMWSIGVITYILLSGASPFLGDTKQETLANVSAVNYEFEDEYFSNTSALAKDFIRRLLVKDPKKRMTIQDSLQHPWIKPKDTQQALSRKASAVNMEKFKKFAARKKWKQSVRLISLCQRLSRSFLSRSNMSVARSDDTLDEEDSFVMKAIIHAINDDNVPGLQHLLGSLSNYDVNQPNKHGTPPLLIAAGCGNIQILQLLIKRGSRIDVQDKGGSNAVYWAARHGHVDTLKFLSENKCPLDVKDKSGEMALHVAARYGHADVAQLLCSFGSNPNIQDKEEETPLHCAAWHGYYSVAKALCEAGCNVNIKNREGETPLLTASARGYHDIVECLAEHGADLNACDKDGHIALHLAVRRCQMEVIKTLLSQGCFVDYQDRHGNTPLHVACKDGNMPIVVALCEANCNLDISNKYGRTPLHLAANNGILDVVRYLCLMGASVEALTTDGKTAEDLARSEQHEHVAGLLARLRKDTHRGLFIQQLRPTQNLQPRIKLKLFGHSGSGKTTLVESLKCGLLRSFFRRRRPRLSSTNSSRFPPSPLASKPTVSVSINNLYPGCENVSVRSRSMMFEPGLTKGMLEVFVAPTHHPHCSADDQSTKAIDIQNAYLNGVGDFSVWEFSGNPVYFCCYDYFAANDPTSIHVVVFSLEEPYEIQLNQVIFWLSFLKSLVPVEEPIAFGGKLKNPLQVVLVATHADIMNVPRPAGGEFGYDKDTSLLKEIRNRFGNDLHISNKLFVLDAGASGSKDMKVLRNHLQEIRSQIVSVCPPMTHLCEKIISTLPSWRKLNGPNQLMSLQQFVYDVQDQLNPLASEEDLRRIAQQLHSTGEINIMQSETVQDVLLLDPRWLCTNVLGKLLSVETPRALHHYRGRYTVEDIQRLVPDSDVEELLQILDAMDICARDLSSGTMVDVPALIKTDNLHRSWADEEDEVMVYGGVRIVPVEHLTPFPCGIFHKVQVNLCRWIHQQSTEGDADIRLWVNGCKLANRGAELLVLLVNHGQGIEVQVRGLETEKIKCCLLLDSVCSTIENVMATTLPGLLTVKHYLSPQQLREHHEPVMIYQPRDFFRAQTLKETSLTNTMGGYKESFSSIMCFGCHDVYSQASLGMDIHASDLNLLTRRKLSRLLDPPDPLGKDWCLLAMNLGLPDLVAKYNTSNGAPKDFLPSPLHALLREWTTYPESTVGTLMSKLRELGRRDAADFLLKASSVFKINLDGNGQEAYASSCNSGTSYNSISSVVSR
- experimental_details: KINOMEscan competition binding
- applied_conditions: compound 10.0 µM
Rule: measured kinase still bound, per cent of control below 10% gets Yes; anything equal to or greater than 10% gets No.

stdin: In the record for `CS(=O)(=O)Nc1ccc(-c2cc(/C=C3\SC(=N)NC3=O)c[nH]c2=O)cc1` , is kinase still bound, per cent of control less than 10%?
stdout: Yes

stdin: Is 10% strictly greater than the compound's reported kinase still bound, per cent of control? compound: `O=C1NC(=O)/C(=C/c2c[nH]c(=O)c(-c3ccc(C(=O)Nc4ccc(N5CCNCC5)cc4)cc3)c2)S1`
stdout: Yes

stdin: Could you please tell me whether kinase still bound, per cent of control recorded for `N=C1NC(=O)/C(=C/c2c[nH]c(=O)c(-c3ccc(S(N)(=O)=O)cc3)c2)S1` is less than 10%?
stdout: No

stdin: Strictly below 10%: is that where kinase still bound, per cent of control of `O=C1NC(=S)S/C1=C\c1ccc(-c2cncc3ccccc23)o1` sits?
stdout: Yes

stdin: Field: below-cutoff. Rule: recorded kinase still bound, per cent of control strictly less than 10%. Subject: `NS(=O)(=O)c1ccc(-c2ccc(/C=C3\SC(=O)NC3=O)o2)cc1`
stdout: Yes

stdin: Please indicate whether the reported kinase still bound, per cent of control of `N=C1NC(=O)/C(=C/c2ccc(-c3ccc4c(C(=O)Nc5ccc(N6CCNCC6)cc5)cccc4c3)o2)S1` is strictly below 10%.
stdout: No

stdin: Decide: kinase still bound, per cent of control of `Nc1cccc(-c2cc(/C=C3\SC(=O)NC3=O)c[nH]c2=O)c1` strictly below 10%?
stdout: Yes

----------
- target_or_test_system: CLK1 (human) (UniProt P49759)
- Sequence (P49759 whole entry, looked up): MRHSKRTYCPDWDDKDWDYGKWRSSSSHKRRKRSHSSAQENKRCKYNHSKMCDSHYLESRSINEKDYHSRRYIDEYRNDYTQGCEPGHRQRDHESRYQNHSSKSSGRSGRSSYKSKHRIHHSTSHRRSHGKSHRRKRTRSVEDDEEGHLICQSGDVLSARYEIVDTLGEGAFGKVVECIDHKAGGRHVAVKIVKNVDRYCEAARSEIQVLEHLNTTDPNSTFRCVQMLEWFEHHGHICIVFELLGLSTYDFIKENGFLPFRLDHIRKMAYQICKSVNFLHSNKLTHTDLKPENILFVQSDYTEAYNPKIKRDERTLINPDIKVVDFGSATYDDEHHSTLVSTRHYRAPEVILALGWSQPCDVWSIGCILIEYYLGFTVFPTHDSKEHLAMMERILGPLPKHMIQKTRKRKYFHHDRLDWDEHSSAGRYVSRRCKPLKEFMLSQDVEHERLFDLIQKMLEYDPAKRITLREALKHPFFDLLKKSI
- experimental_details: KINOMEscan competition binding
- applied_conditions: compound 10.0 µM
quantity: kinase still bound, per cent of control

stdin: Specify reported kinase still bound, per cent of control for the compound shown: `N=C1NC(=O)/C(=C/c2ccc(-c3cccc4cc[nH]c34)o2)S1`
stdout: 17%

stdin: Dear colleague, please send me the reported kinase still bound, per cent of control for `N=C1NC(=O)/C(=C/c2ccc(-c3ccc(F)cc3)o2)S1` when you can.
stdout: 26%

stdin: Give reported kinase still bound, per cent of control value for `CN1C(=O)c2ccccc2N(C)c2nc(Nc3ccc(N4CCC(O)CC4)cc3)ncc21`
stdout: 75%

stdin: Please report kinase still bound, per cent of control for the following compound: `CSC1=NC(=O)/C(=C/c2c[nH]c(=O)c(-c3ccc(NS(C)(=O)=O)cc3)c2)S1`
stdout: 18%

stdin: Give me measured kinase still bound, per cent of control, please, for this compound: `COc1cc(N2CCN(C)CC2)ccc1Nc1ncc2c(n1)N(C)c1sccc1C(=O)N2C`
stdout: 56%

stdin: Note down kinase still bound, per cent of control recorded for `CS(=O)(=O)Nc1ccc(-c2cc(/C=C3\SC(=N)NC3=O)c[nH]c2=O)cc1`
stdout: 1.6%

stdin: Tell me its kinase still bound, per cent of control given `N=C1NC(=O)/C(=C/c2ccc(-c3ccc(C(=O)Nc4ccc(N5CCNCC5)cc4)cc3O)o2)S1` as the entry.
stdout: 2.4%

stdin: Please give the documented kinase still bound, per cent of control of `COc1cc(N2CCN(C)CC2)ccc1Nc1ncc2c(n1)N(C(C)C)c1ccccc1C(=O)N2`
stdout: 27%

stdin: Item `N=C1NC(=O)/C(=C/c2ccc(-c3csc4ccccc34)o2)S1` : provide kinase still bound, per cent of control
stdout: 20%

stdin: Given the compound `O=C1NC(=S)S/C1=C\c1ccc(-c2cncc3ccccc23)o1` , write its reported kinase still bound, per cent of control.
stdout: 5.6%

stdin: For the compound `O=C1NC(=O)/C(=C/c2c[nH]c(=O)c(-c3ccc(N4CCNCC4)nc3)c2)S1` , report kinase still bound, per cent of control.
stdout: 0.3%

stdin: Could you please provide reported kinase still bound, per cent of control for `N=C1NC(=O)/C(=C/c2ccc(-c3ccc(C(N)=O)cc3O)o2)S1` ? Thanks!
stdout: 0.55%

stdin: State, in one line, measured kinase still bound, per cent of control of `CN1C(=O)c2ccccc2N(C)c2nc(NS(=O)(=O)c3ccc(N)cc3)ncc21`
stdout: 100%

// provenance: the kinase profiling compilation of Christmann-Franck et al. (2016)
